Value source: ChEMBL document CHEMBL4689842

Tested on: HEK-293T
Assay: Multiplex assay against HEK293T
Type: toxicity, cell-based
Details: human, 48 h, 1 µM, compound concentration 1 uM, replicate 1

{"COMPOUND": "COc1cccc([C@@H](C)NCCCc2ccccc2Cl)c1.Cl [TECALCET HYDROCHLORIDE]", "Population Fragmented Nuclei (%)": 6}
{"COMPOUND": "CNc1nc(NCc2ccc(NS(C)(=O)=O)cc2Cl)cc(-c2ccccn2)n1", "Population Fragmented Nuclei (%)": 15}
{"COMPOUND": "C[C@@H](NCCCc1cccc(C(F)(F)F)c1)c1cccc2ccccc12.Cl [CINACALCET HYDROCHLORIDE]", "Population Fragmented Nuclei (%)": 7}
{"COMPOUND": "c1cn2cc(-c3ccc4cn[nH]c4c3)nc(Nc3ccc(N4CCOCC4)cc3)c2n1 [ENTOSPLETINIB]", "Population Fragmented Nuclei (%)": 10}
{"COMPOUND": "CN(C)CC#Cc1ccc(OCCCc2sc(N3CCc4cccc(C(=O)Nc5nc6ccccc6s5)c4C3)nc2C(=O)O)c(F)c1 [A-1155463]", "Population Fragmented Nuclei (%)": 16}
{"COMPOUND": "OC1(c2ccc(Cl)cc2)CCN(Cc2c[nH]c3ccccc23)CC1", "Population Fragmented Nuclei (%)": 19}
{"COMPOUND": "Cc1c(-c2ccc(O)cc2)n(Cc2ccc(OCCN3CCCCCC3)cc2)c2ccc(O)cc12 [BAZEDOXIFENE]", "Population Fragmented Nuclei (%)": 14}
{"COMPOUND": "CC[C@H](C)C(=O)O[C@H]1C[C@@H](C)C=C2C=C[C@H](C)[C@H](CC[C@@H]3C[C@@H](O)CC(=O)O3)[C@H]21 [LOVASTATIN]", "Population Fragmented Nuclei (%)": 29}
